assay_summary: Half-life in rhesus monkeys by intravenous administration of dose
Format: ADME, organism-based
condition_description: cercopithecidae, in vivo
experimental_readout: half-life
Give the value; after it, write the unit.

Supply reported half-life belonging to this molecule: COc1cc([C@H]2CC[C@H](c3cc(OC)c(OC)c(OC)c3)O2)cc(OC)c1OC
14 min

Provenance of the data: ChEMBL document CHEMBL1125858
